# CONDITION_NOTES: buffer; pH 7.4; 200.0 µM
QUANTITY_KIND: solubility kinetic (µg/mL)
The reply should contain only the number, in µg/mL.

{"MOLECULE": "CCC(C(=O)NCc1ccccc1OC)c1ccccc1 (centres undefined)", "UNIT_OF_MEASURE": "µg/mL", "MEAS_VALUE": 32.6}
{"MOLECULE": "O=C(Nc1ccc2c(c1)OCO2)C(=O)c1c[nH]c2ccccc12", "UNIT_OF_MEASURE": "µg/mL", "MEAS_VALUE": 0.7}
{"MOLECULE": "Cc1ccc(OCC(=O)N2CCC3(CC2)CC(=O)c2ccccc2O3)cc1", "UNIT_OF_MEASURE": "µg/mL", "MEAS_VALUE": 54.2}
{"MOLECULE": "Cc1c(C)c2ccc(OCC(=O)Nc3cccnc3)cc2oc1=O", "UNIT_OF_MEASURE": "µg/mL", "MEAS_VALUE": 1.3}
{"MOLECULE": "CN1CCN(Cc2c(F)cccc2Cl)CC1", "UNIT_OF_MEASURE": "µg/mL", "MEAS_VALUE": 24.2}
{"MOLECULE": "Cc1ccccc1NC(=S)Nc1ccc2[nH]c(=O)[nH]c2c1", "UNIT_OF_MEASURE": "µg/mL", "MEAS_VALUE": 41.7}

# input Which solubility kinetic reading was recorded for the molecule `COc1ccc(C(=O)N/C(=C\c2ccc(SC)cc2)C(=O)NCCCn2ccnc2)cc1OC` ?
# output 12.3

# input Follow-up item: `Cc1cc(C)cc(OCC(=O)OCc2cc([N+](=O)[O-])cc3c2OCOC3)c1`
# output 3.9

# input Follow-up item: `Cc1cccc(CSc2[nH]c(=O)ncc2C)c1`
# output 15.7

# input Follow-up item: `COC(=O)Cc1ccc(NC(=S)N2CCN(c3ccccn3)CC2)cc1`
# output 5

# input Follow-up item: `CCOC(=O)Cc1csc(NC(=O)Nc2ccc(OC(F)(F)F)cc2)n1`
# output 0.3

# input Follow-up item: `COC(=O)c1ccc(CSc2cc(C)c3ccccc3n2)o1`
# output 3.4

# input Follow-up item: `COc1cccc(NC(=O)C(=S)NC2CCCCC2)c1`
# output 1.3

# input Follow-up item: `COCc1cc(C)nc2oc(C(=O)c3ccccc3)c(N)c12`
# output 8.4

# input Follow-up item: `O=C(Nc1ccc(O)cc1)c1ccc(NC(=O)c2cccs2)cc1`
# output 0.8

# input Follow-up item: `COc1cccc(/C=N/c2nc3ccccc3[nH]2)c1O`
# output 33.2

# input Follow-up item: `Cn1c(-c2nonc2N)nc2ccccc21`
# output 4.3

----------
# CONDITION_NOTES: buffer; pH 7.4; 200.0 µM
Overview of reported solubility kinetic across a group of compounds:
The reply should contain only the number, in µg/mL.

In the examples that follow, each entry is paired with its recorded solubility kinetic.
{"COMPOUND": "COc1ccc(CN2CCCCCC2)cc1", "QUANTITY_KIND": "solubility kinetic", "MEAS_VALUE": 26.2}
{"COMPOUND": "N#Cc1ccccc1NC(=S)NC(=O)c1cccnc1", "QUANTITY_KIND": "solubility kinetic", "MEAS_VALUE": 28.9}
{"COMPOUND": "COc1ccc(NC(=O)c2cc3ccccc3[nH]2)cc1", "QUANTITY_KIND": "solubility kinetic", "MEAS_VALUE": 1.5}

# input Which solubility kinetic reading was recorded for the compound `CCc1ccc(NC2=CC(=O)CC(C)(C)C2)cc1` ?
# output 16.1

# input Follow-up item: CCC(Oc1ccc(F)cc1)C(=O)N1CCCCCCC1 (stereo not given)
# output 34.8

# input Follow-up item: `O=[N+]([O-])c1ccc(Oc2ccc(S(=O)(=O)N3CCOCC3)cc2)cc1`
# output 18.1

# input Follow-up item: OCC1CCCCN1C(=S)NCc1ccco1 (stereo not given)
# output 32.1

# input Follow-up item: `Cc1ccc(C(=O)OCC(=O)N(Cc2ccccc2)C(C)C)cc1C`
# output 16.8

----------
# CONDITION_NOTES: buffer; pH 7.4; 200.0 µM
QUANTITY_KIND: solubility kinetic (µg/mL)
The reply should contain only the number, in µg/mL.

In the examples that follow, each entry is paired with its recorded solubility kinetic.
{"COMPOUND": "Cn1c(CNc2ccc(Br)cc2)nc2ccccc21", "UNIT_OF_MEASURE": "µg/mL", "MEAS_VALUE": 13}
{"COMPOUND": "CCOC(=O)Cn1c(=O)n(Cc2ccccc2)c(=O)c2cccnc21", "UNIT_OF_MEASURE": "µg/mL", "MEAS_VALUE": 7.6}
{"COMPOUND": "Cc1cccc(NC(=O)C2CCCN2C(=O)NC2CCCCC2)c1 (centres undefined)", "UNIT_OF_MEASURE": "µg/mL", "MEAS_VALUE": 3.1}
{"COMPOUND": "CC(C)C(=O)Nc1ccc(-c2nc3ccccc3c(=O)o2)cc1", "UNIT_OF_MEASURE": "µg/mL", "MEAS_VALUE": 16.7}

# input Which solubility kinetic reading was recorded for the compound `CC(=O)Nc1cccc(NC=C(C#N)C#N)c1` ?
# output 11.7

# input Follow-up item: CC1CC(C)CN(C(=O)COC(=O)c2c[nH]c3ccccc23)C1 (centres undefined)
# output 12.7

# input Follow-up item: `Cc1ccc(/C(O)=C/C(=O)C(=O)NC23CC4CC(CC(C4)C2)C3)cc1`
# output 8.4

# input Follow-up item: `O=[N+]([O-])c1ccccc1S(=O)(=O)N1CCN(c2ccccc2)CC1`
# output 7.2

# input Follow-up item: `CCNC(=S)N1CCN(S(=O)(=O)/C=C/c2ccccc2)CC1`
# output 4.2

# input Follow-up item: `CC1(C)C(=O)Nc2ccccc2N1C(=O)COC(=O)Cc1ccc(Cl)c(Cl)c1`
# output 10.1

# input Follow-up item: `COc1ccccc1C(=O)COC(=O)c1ccc(Cl)nc1`
# output 44.6

# input Follow-up item: `COc1cc(NC(=O)CSCc2ccccc2)c(C(=O)O)cc1OC`
# output 52.6

# input Follow-up item: Cc1ccccc1OCC(O)CN(CCO)Cc1ccccc1.Cl (centres undefined)
# output 40.4

# input Follow-up item: `COc1ccc(-c2csc(N3CCSCC3)n2)cc1`
# output 0.3

# input Follow-up item: CN(C)C(C(=O)Nc1cc(Cl)cc(Cl)c1)c1ccccc1 (centres undefined)
# output 19.2

# input Follow-up item: `COC(=O)c1ccc(NC(=O)COc2ccc([N+](=O)[O-])cc2)cc1`
# output 0.4

----------
# CONDITION_NOTES: buffer; pH 7.4; 200.0 µM
QUANTITY_KIND: solubility kinetic (µg/mL)
The reply should contain only the number, in µg/mL.

{"MOLECULE": "COc1ccc(OC)c(-c2cc(C(=O)Nc3ccccc3C(N)=O)c3ccccc3n2)c1", "solubility kinetic [µg/mL]": 5.9}

# input Which solubility kinetic reading was recorded for the molecule `N/C(CCS(=O)(=O)c1ccc(Cl)cc1)=N\OC(=O)c1ccccc1C(F)(F)F` ?
# output 57

# input Follow-up item: `Cc1onc(-c2c(F)cccc2Cl)c1C(=O)Nc1ccc(S(=O)(=O)N2CCOCC2)cc1`
# output 2.3

# input Follow-up item: CCc1cccc(C)c1NC(=O)CN1C(=O)NC(CCc2ccccc2)C1=O (stereo unspecified)
# output 7.6

----------
# CONDITION_NOTES: buffer; pH 7.4; 200.0 µM
Assign 1 whenever solubility kinetic does not fall below 3 µg/mL; assign -1 whenever it does.

Example entries and their recorded answers appear below.
{"MOLECULE": "CN(C)CCCNc1nc(N)c([N+](=O)[O-])c(NCCO)n1", "CATEGORY": 1}
{"MOLECULE": "Cc1cc2[nH]c3ccccc3c2cn1", "CATEGORY": 1}

# input Check this molecule for solubility kinetic at or above 3 µg/mL: `Cc1cccc(OCCCC(=O)N2CCCCCC2)c1C`
# output 1

# input Follow-up item: `Cc1ccc(-c2onc3ccc(C4OCCO4)cc23)cc1`
# output -1

----------
# CONDITION_NOTES: buffer; pH 7.4; 200.0 µM
Overview of reported solubility kinetic across a group of compounds:
The reply should contain only the number, in µg/mL.

In the examples that follow, each entry is paired with its recorded solubility kinetic.
{"COMPOUND": "Cc1ccc(NC2Sc3ccccc3NC2=O)cc1 (configuration not stated)", "QUANTITY_KIND": "solubility kinetic", "MEAS_VALUE": 9.6}
{"COMPOUND": "Cc1cccc(OCCN2CCOCC2)c1C", "QUANTITY_KIND": "solubility kinetic", "MEAS_VALUE": 24.4}
{"COMPOUND": "CN1CCN(CC(=O)Nc2nc3ccccc3s2)CC1.O=CO", "QUANTITY_KIND": "solubility kinetic", "MEAS_VALUE": 50.4}
{"COMPOUND": "NC(=O)c1ccc(Oc2ccc(Cl)cc2)c([N+](=O)[O-])c1", "QUANTITY_KIND": "solubility kinetic", "MEAS_VALUE": 2}
{"COMPOUND": "Cc1cccc(NC(=O)COc2cccc3c2CCN(C)C3=O)c1", "QUANTITY_KIND": "solubility kinetic", "MEAS_VALUE": 41.9}
{"COMPOUND": "O=C(/C=C/c1ccc(-c2cccc([N+](=O)[O-])c2)o1)N1CCOCC1", "QUANTITY_KIND": "solubility kinetic", "MEAS_VALUE": 3.9}
{"COMPOUND": "Cc1ccc(CNC(=O)CCn2c(=O)oc3ccccc32)cc1", "QUANTITY_KIND": "solubility kinetic", "MEAS_VALUE": 5.1}
{"COMPOUND": "COc1ccc(N2CCN(c3ccc([N+](=O)[O-])nc3)CC2)cc1", "QUANTITY_KIND": "solubility kinetic", "MEAS_VALUE": 3}

# input Which solubility kinetic reading was recorded for the compound `COc1ccc(NC(=O)CCS(=O)(=O)c2ccc(Cl)cc2)cc1` ?
# output 18.4

# input Follow-up item: CC(COc1ccccc1)N(CCCl)Cc1ccccc1.Cl (configuration not stated)
# output 45.8

Where these numbers come from: PubChem BioAssay AID1996
